Entries and their Disease (%) at 16 ppm Septtr P7
Tested on: Septoria tritici
Assay: Preventative control of leaf blotch on wheat, inoculation seven days later (Septtr P7), greenhouse
Type: in vivo
Conditions: Use Example 11, untreated control 90
Answer format: value, then unit.

>  <compound>
OC(Cn1cncn1)c1ccc(Oc2ccc(Cl)cc2)cc1C(F)(F)F (centres unmarked)

>  <target entity>
Septoria tritici

>  <result>
3%

$$$$

Form field Disease (%) at 16 ppm Septtr P7, entry COC(Cn1cncn1)c1ccc(Oc2ccc(Cl)cc2)cc1Cl (centres unmarked) [DE3801233 compound 2, reference compound] : 90%

Form field Disease (%) at 16 ppm Septtr P7, entry CC(O)(Cn1cncn1)c1ccc(Oc2ccc(Cl)cc2)cc1Cl (centres unmarked) [compound V18, reference compound] : 67%

Form field Disease (%) at 16 ppm Septtr P7, entry COC(Cn1cncn1)c1ccc(Oc2ccc(Cl)cc2)cc1C(F)(F)F (centres unmarked) : 15%

Form field Disease (%) at 16 ppm Septtr P7, entry OC(Cn1cncn1)c1ccc(Oc2ccc(Cl)cc2)cc1Cl (centres unmarked) [compound V6, reference compound] : 30%

Cited source: patent US10358426B2
